All values here come from ChEMBL document CHEMBL3885861.

- Species on record: Rattus norvegicus
- assay.procedure: Open TG-GATES - Regimen: Daily Repeat
- Format: toxicity, organism-based, Sprague-Dawley
- Design: regimen Daily Repeat, gender Male, age 6 weeks
- study.conditions: in vivo, po, 0 mg/kg, […], tissue Plasma, route gavage, dose level Control, time 28 day
For each record, write down the corresponding TC.
The number alone won't do; follow it with the unit.

Give measured TC for every item shown.
1. C#C[C@]1(O)CC[C@H]2[C@@H]3CCC4=Cc5oncc5C[C@]4(C)[C@H]3CC[C@@]21C
2. CN1C(C(=O)Nc2ccccn2)=C(O)c2sc(Cl)cc2S1(=O)=O
3. O=C(O)Cc1ccccc1Nc1c(Cl)cccc1Cl
4. Cc1cccc(Nc2ccccc2C(=O)O)c1C

Completion:
["71 mg/dL", "67.6 mg/dL", "68.8 mg/dL", "74.2 mg/dL"]

Quick request: TC for each listed item, please.
1. CC(=O)Nc1nnc(S(N)(=O)=O)s1 [ACETAZOLAMIDE]
2. C1CCC(C(CC2CCCCN2)C2CCCCC2)CC1 (stereo unspecified)

Completion:
69.8 mg/dL
63 mg/dL

====

Provide the reported RBC of each item.
- Organism: Rattus norvegicus
- assay.procedure: Open TG-GATES - Regimen: Single
- Type: toxicity, organism-based, Sprague-Dawley
- Set-up: regimen Single, gender Male, age 6 weeks
- study.conditions: in vivo, po, 0 mg/kg, 9 h, tissue Blood, route gavage, dose level Control
Numbers only, in x10_4/ul.

Please review the entries below; each comes with its answer.
compound	RBC [x10_4/ul]
COc1cc([C@@H]2c3cc4c(cc3[C@@H](O[C@@H]3O[C@@H]5CO[C@@H](C)O[C@H]5[C@H](O)[C@H]3O)[C@H]3COC(=O)[C@H]23)OCO4)cc(OC)c1O [ETOPOSIDE]	604.6
C1CCC(C(CC2CCCCN2)C2CCCCC2)CC1 (stereo not given) [PERHEXILINE]	606.6

For each listed entry, give its RBC.
1. Clc1c(Cl)c(Cl)c(Cl)c(Cl)c1Cl [PERCHLOROBENZENE]
2. CN1C(C(=O)Nc2ccccn2)=C(O)c2sc(Cl)cc2S1(=O)=O [LORNOXICAM]
3. CC(CN1c2ccccc2Sc2ccccc21)N(C)C (stereo not given) [PROMETHAZINE]
4. CN(C)[C@@H]1C(O)=C(C(N)=O)C(=O)[C@@]2(O)C(O)=C3C(=O)c4c(O)cccc4[C@@](C)(O)[C@H]3C[C@@H]12 [TETRACYCLINE]
5. CCOC(=O)[C@H](CCc1ccccc1)N[C@@H](C)C(=O)N1CCC[C@H]1C(=O)O
6. C#C[C@]1(O)CC[C@H]2[C@@H]3CCC4=Cc5oncc5C[C@]4(C)[C@H]3CC[C@@]21C [DANAZOL]

Completion:
1: 641.8; 2: 634.2; 3: 627.6; 4: 613.2; 5: 593.2; 6: 639.2

For the 2 compounds below, give their RBC values.
1. CC(=O)Nc1nnc(S(N)(=O)=O)s1 [ACETAZOLAMIDE]
2. Cc1cccc(Nc2ccccc2C(=O)O)c1C [MEFENAMIC ACID]

Completion:
[616.6, 613]

====

Can you tell me ALT for the items I'm about to list?
- Species: Rattus norvegicus
- assay.procedure: Open TG-GATES - Regimen: Daily Repeat
- Type: toxicity, organism-based, Sprague-Dawley
- Parameters: regimen Daily Repeat, gender Male, age 6 weeks
- study.conditions: in vivo, po, 0 mg/kg, […], tissue Plasma, route gavage, dose level Control, time 7 day
Answers are plain numbers, in IU/L.

compound	ALT [IU/L]
CCOC(=O)[C@H](CCc1ccccc1)N[C@@H](C)C(=O)N1CCC[C@H]1C(=O)O	37.8
CN(C)[C@@H]1C(O)=C(C(N)=O)C(=O)[C@@]2(O)C(O)=C3C(=O)c4c(O)cccc4[C@@](C)(O)[C@H]3C[C@@H]12	38.2
CC(CN1c2ccccc2Sc2ccccc21)N(C)C (centres undefined)	42.2

Prompt: Read off the recorded ALT for `CN1C(C(=O)Nc2ccccn2)=C(O)c2sc(Cl)cc2S1(=O)=O`
Completion: 33.2
